- TEST_SYSTEM: human TRPA1 (Homo sapiens (Human), UniProt O75762)
- Sequence (O75762 whole entry): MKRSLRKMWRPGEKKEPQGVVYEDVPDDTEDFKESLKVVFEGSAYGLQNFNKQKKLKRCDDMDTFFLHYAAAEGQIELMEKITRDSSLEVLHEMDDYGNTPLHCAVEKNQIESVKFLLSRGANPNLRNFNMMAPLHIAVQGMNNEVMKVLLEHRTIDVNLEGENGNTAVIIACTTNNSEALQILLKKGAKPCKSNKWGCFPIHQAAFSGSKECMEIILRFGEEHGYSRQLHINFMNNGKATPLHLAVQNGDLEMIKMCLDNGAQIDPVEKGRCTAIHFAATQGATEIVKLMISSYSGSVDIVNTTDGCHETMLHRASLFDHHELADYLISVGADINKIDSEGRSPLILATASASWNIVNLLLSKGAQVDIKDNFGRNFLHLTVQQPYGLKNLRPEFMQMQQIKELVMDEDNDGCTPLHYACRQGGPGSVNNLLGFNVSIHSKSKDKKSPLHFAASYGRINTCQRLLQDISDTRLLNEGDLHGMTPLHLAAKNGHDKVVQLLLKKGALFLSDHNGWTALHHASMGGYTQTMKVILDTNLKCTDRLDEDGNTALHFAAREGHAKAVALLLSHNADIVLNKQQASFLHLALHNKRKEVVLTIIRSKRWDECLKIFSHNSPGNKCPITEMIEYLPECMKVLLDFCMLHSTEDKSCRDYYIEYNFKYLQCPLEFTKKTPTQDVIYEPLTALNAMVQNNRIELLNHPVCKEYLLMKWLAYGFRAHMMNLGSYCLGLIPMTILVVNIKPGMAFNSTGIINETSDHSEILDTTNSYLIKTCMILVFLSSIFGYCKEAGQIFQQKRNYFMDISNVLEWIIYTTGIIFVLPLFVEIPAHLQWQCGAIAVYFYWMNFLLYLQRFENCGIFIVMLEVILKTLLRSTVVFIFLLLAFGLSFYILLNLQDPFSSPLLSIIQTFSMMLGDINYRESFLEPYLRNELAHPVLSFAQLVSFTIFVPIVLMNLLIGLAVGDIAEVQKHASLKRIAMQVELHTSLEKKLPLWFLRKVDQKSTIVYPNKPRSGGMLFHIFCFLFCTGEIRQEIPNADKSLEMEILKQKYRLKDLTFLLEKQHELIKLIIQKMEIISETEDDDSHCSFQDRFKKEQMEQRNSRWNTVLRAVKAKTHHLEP
- TEST_DESCRIPTION: 45Calcium uptake assay, AITC induced, human TRPA1 expressing CHO cells
- APPLIED_CONDITIONS: AITC 30 micromolar, read-out: IC50 values hTRPA1
pIC50: −log10 of the molar value.

{"columns": ["SMILES_INPUT", "pIC50"],
 "data": [
  ["Cn1c(=O)c2c(cnn2CC(=O)Nc2nc(-c3cc(F)c(OCC4CCC4)c(F)c3)cs2)n(C)c1=O", 7.74],
  ["Cc1oc2c(c1CC(=O)Nc1nc(-c3cccc(C(F)(F)F)c3F)cs1)c(=O)n(C)c(=O)n2C", 7.87],
  ["CC(C)CCOc1ccc(-c2csc(NC(=O)Cc3cccc4c3c(=O)n(C)c(=O)n4C)n2)cc1", 7.10],
  ["CCc1sc2c(c1CC(=O)Nc1nc(-c3ccc(C(F)(F)F)c(F)c3)cs1)c(=O)n(C)c(=O)n2C", 7.78]
]}

----------
Let's look at some compounds and their measured pIC50.
- TEST_SYSTEM: human TRPV4 (Homo sapiens (Human), UniProt Q9HBA0)
- Sequence (Q9HBA0 whole entry): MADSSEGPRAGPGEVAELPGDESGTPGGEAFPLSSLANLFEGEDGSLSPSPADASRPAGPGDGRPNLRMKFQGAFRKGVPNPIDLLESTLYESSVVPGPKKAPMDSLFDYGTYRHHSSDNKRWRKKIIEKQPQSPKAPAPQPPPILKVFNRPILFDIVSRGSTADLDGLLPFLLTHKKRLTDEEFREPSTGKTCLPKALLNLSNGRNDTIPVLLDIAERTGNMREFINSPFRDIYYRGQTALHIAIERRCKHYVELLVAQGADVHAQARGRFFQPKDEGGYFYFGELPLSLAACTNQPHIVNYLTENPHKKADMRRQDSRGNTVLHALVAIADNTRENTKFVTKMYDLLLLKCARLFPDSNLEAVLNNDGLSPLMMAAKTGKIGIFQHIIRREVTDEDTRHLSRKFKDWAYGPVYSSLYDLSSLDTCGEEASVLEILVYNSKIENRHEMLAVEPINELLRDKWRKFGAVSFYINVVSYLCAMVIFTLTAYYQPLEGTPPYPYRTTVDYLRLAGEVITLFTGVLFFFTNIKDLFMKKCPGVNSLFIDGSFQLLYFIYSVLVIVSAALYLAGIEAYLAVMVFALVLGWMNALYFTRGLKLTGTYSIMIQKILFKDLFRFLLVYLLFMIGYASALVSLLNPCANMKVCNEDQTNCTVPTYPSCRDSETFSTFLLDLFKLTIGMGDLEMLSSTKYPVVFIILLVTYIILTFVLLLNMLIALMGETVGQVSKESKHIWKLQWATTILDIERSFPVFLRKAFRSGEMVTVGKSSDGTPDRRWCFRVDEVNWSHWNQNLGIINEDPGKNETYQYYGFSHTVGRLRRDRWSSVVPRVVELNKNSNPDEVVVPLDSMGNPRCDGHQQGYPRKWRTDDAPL
- TEST_DESCRIPTION: Radiometric calcium selectivity assay, CHO cells expressing human TRPV4 (4α-phorbol 12,13-didecanoate)
- APPLIED_CONDITIONS: read-out: IC50 values hTRPV4
pIC50: −log10 of the molar value.

{"columns": ["COMPOUND", "TEST_SYSTEM", "pIC50"],
 "data": [
  ["Cn1c(=O)c2c(CC(=O)Nc3nc(-c4ccc(C(F)(F)F)c(F)c4F)cs3)cccc2n(C)c1=O [Compound 28]", "human TRPV4 (Homo sapiens (Human), UniProt Q9HBA0)", 6.04],
  ["Cn1c(=O)c2c(CC(=O)Nc3nc(-c4ccc(Cl)c(Cl)c4)cs3)cccc2n(C)c1=O [Compound 4]", "human TRPV4 (Homo sapiens (Human), UniProt Q9HBA0)", "< 6.00"],
  ["Cc1oc2c(c1CC(=O)Nc1nc(-c3cccc(C(F)(F)F)c3F)cs1)c(=O)n(C)c(=O)n2C [Compound 67]", "human TRPV4 (Homo sapiens (Human), UniProt Q9HBA0)", "< 5.00"],
  ["Cn1c(=O)c2c(CC(=O)Nc3nc(-c4ccc(C(F)(F)F)cc4F)cs3)cccc2n(C)c1=O [Compound 19]", "human TRPV4 (Homo sapiens (Human), UniProt Q9HBA0)", 5.79],
  ["Cn1c(=O)c2c(CC(=O)Nc3ccn(-c4ccc(Cl)cc4)n3)cccc2n(C)c1=O [Compound 8]", "human TRPV4 (Homo sapiens (Human), UniProt Q9HBA0)", "< 6.00"],
  ["Cn1c(=O)c2c(CC(=O)Nc3nc(-c4ccc(Cl)c(C(F)(F)F)c4)cs3)cccc2n(C)c1=O [Compound 21]", "human TRPV4 (Homo sapiens (Human), UniProt Q9HBA0)", 6.28],
  ["CCC(=N\\O)/C(C)=C/c1ccc(F)cc1 [Compound 89]", "human TRPV4 (Homo sapiens (Human), UniProt Q9HBA0)", "< 5.00"],
  ["Cn1c(=O)c2c(cnn2CC(=O)Nc2nc(-c3cc(F)c(OCC(C)(C)C)c(Cl)c3)cs2)n(C)c1=O [Compound 42]", "human TRPV4 (Homo sapiens (Human), UniProt Q9HBA0)", "< 5.00"]
]}
